- System: Aspergillus niger ATCC 16404
- test-name: Antifungal susceptibility study (1), broth microdilution MIC
- Type: cell-based
- recorded-conditions: lowest concentration preventing any visible growth, read at 48 hours, 35° C., RPMI 1640 pH 7.0
assay-metric: MIC Aspergillus niger ATCC 16404

INSERT INTO results (compound, study_system, result) VALUES
  ('CC1O[C@@H](O[C@H]2/C=C/C=C/C=C/C=C/C=C/C=C/C=C/[C@H](C)[C@@H](O)[C@@H](C)[C@H](C)OC(=O)C[C@H](O)C[C@H](O)C[C@H](O)CC[C@@H](O)[C@H](O)C[C@]3(O)C[C@H](O)[C@@H](C)[C@H](C2)O3)[C@H](O)C(N)[C@@H]1O.N[C@H](CCC(=O)O)C(=O)O (some centres unmarked) [Compound 54]', 'Aspergillus niger ATCC 16404', '2 µg/mL'),
  ('CC1O[C@@H](O[C@H]2/C=C/C=C/C=C/C=C/C=C/C=C/C=C/[C@H](C)[C@@H](O)[C@@H](C)[C@H](C)OC(=O)C[C@H](O)C[C@H](O)C[C@H](O)CC[C@@H](O)[C@H](O)C[C@]3(O)C[C@H](O)[C@@H](C(=O)NCCN(C)C)[C@H](C2)O3)[C@H](O)C(N)[C@@H]1O (some centres unmarked) [Compound 48]', 'Aspergillus niger ATCC 16404', '1 µg/mL'),
  ('CC1C=CC=CC=CC=CC=CC=CC=CC(OC2OC(C)C(O)C(NC(=O)CN(C)C)C2O)CC2OC(O)(CC(O)C(O)CCC(O)CC(O)CC(O)CC(=O)OC(C)C(C)C1O)CC(O)C2C(=O)NCCCO (centres unmarked) [Compound 39]', 'Aspergillus niger ATCC 16404', '2 µg/mL'),
  ('COC(=O)C(CO)NC(=O)C1C(O)CC2(O)CC(O)C(O)CCC(O)CC(O)CC(O)CC(=O)OC(C)C(C)C(O)C(C)C=CC=CC=CC=CC=CC=CC=CC(OC3OC(C)C(O)C(N)C3O)CC1O2 (mixture of isomers) [Compound 14]', 'Aspergillus niger ATCC 16404', '2 µg/mL'),
  ('CC1O[C@@H](O[C@H]2/C=C/C=C/C=C/C=C/C=C/C=C/C=C/[C@H](C)[C@@H](O)[C@@H](C)[C@H](C)OC(=O)C[C@H](O)C[C@H](O)C[C@H](O)CC[C@@H](O)[C@H](O)C[C@]3(O)C[C@H](O)[C@@H](C)[C@H](C2)O3)[C@H](O)C(N)[C@@H]1O.Cl (some centres unmarked) [Compound 53, Compound 1 Hydrochloride]', 'Aspergillus niger ATCC 16404', '4 µg/mL'),
  ('CC1C=CC=CC=CC=CC=CC=CC=CC(OC2OC(C)C(O)C(NC(=O)c3ccc(CN)cc3)C2O)CC2OC(O)(CC(O)C(O)CCC(O)CC(O)CC(O)CC(=O)OC(C)C(C)C1O)CC(O)C2C(=O)NCCCN(C)C (centres unmarked) [Compound 35]', 'Aspergillus niger ATCC 16404', '4 µg/mL'),
  ('CC1O[C@@H](O[C@H]2/C=C/C=C/C=C/C=C/C=C/C=C/C=C/[C@H](C)[C@@H](O)[C@@H](C)[C@H](C)OC(=O)C[C@H](O)C[C@H](O)C[C@H](O)CC[C@@H](O)[C@H](O)C[C@]3(O)C[C@H](O)[C@@H](C(=O)NCCN(C)C)[C@H](C2)O3)[C@H](O)C(NCc2ccc(N(C)C)cc2)[C@@H]1O (some centres unmarked) [Compound 43]', 'Aspergillus niger ATCC 16404', '1 µg/mL'),
  ('CC1C=CC=CC=CC=CC=CC=CC=CC(OC2OC(C)C(O)C(NC(=O)C(N)CCCCN)C2O)CC2OC(O)(CC(O)C(O)CCC(O)CC(O)CC(O)CC(=O)OC(C)C(C)C1O)CC(O)C2C(=O)O (centres unmarked) [Compound 23]', 'Aspergillus niger ATCC 16404', '8 µg/mL');
